Could you please report measured IC50 for the items listed next?
Biological target: PD-1/PD-L1 (Homo sapiens, UniProt Q9NZQ7)
Construct: made in house; host or cells: HEK293T
Sequence (Q9NZQ7 with tags, fused parts or gaps): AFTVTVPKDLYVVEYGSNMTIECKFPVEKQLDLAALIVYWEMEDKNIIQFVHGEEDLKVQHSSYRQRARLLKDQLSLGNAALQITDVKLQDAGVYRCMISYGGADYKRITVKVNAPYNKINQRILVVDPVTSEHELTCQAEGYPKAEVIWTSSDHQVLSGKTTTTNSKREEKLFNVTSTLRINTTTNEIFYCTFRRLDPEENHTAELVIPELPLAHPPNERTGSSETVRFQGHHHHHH
Experiment: PD-1/PD-L1 Homogenous Time-Resolved Fluorescence (HTRF) binding assay
Details: PD-L1-His 10 nM, PD-1-Ig 20 nM; numeric IC50; read-out: Range or IC50
Description: The ability of the compounds of formula (I) to bind to PD-L1 was investigated using a PD-1/PD-L1 Homogenous Time-Resolved Fluorescence (HTRF) binding assay. Homogenous Time-Resolved Fluorescence (HTRF) Binding Assay. All binding studies were performed in an HTRF assay buffer consisting of dPBS supplemented with 0.1% […] bovine serum albumin and 0.05% (v/v) Tween-20. […]
Just the number please, in nM, no unit attached.

With PD-1/PD-L1 (Homo sapiens, UniProt Q9NZQ7) as the test system, provide measured IC50 for this molecule: Cc1c(COc2cc(OCc3cncc(C#N)c3)c(C(C)NC(CO)CO)cc2Cl)cccc1-c1cccc(OCCCN2CC[C@@H](O)C2)c1C (stereo partly shown) 3

Answer briefly: IC50 recorded on PD-1/PD-L1 (Homo sapiens, UniProt Q9NZQ7) for Cc1c(COc2cc(OCc3cncc(C#N)c3)c(CN(C)C(CO)(CO)CO)cc2Cl)cccc1-c1cccc(OCCCN2CCC(F)(F)C2)c1C 0.5

Please report the measured IC50 for Cc1c(COc2cc(OCc3cncc(C#N)c3)c(CN[C@@](C)(CO)C(=O)O)cc2Cl)cccc1-c1cccc(OCCCN2CCC(O)C2)c1C(F)(F)F (stereo in doubt) tested on PD-1/PD-L1 (Homo sapiens, UniProt Q9NZQ7). 9

Provide the reported IC50 (system: PD-1/PD-L1 (Homo sapiens, UniProt Q9NZQ7)) for Cc1c(COc2cc(OCc3cncc(C#N)c3)c(CN3CCCC[C@H]3C(=O)O)cc2Cl)cccc1-c1cccc(OCCCN2CCN(c3ccccn3)CC2)c1C 30

// fetch IC50; item: Cc1c(COc2cc(OCc3cncc(C#N)c3)c(CNC(CO)CO)cc2Cl)cccc1-c1cccc(OCCCN2CCCCC2)c1C ; system: PD-1/PD-L1 (Homo sapiens, UniProt Q9NZQ7) 1.9

Return reported IC50 for target or system PD-1/PD-L1 (Homo sapiens, UniProt Q9NZQ7), item CC(=O)NC1CCN(CCCOc2cccc(-c3cccc(COc4cc(O)c(CO)cc4Cl)c3C)c2Cl)C1 (stereo not shown) . 63

# assay system PD-1/PD-L1 (Homo sapiens, UniProt Q9NZQ7): give IC50 of Cc1c(OCCCN2CCOCC2)cccc1-c1cccc(COc2cc(OCc3cncc(C#N)c3)c(CN3CCCC[C@H]3C(=O)O)cc2Cl)c1Cl 3

Fill: IC50 (PD-1/PD-L1 (Homo sapiens, UniProt Q9NZQ7)) for this molecule CC(=O)N[C@H]1CCN(CCCOc2cccc(-c3c(Cl)ccc(COc4cc(OCc5cncc(C#N)c5)c(CNC(C)(CO)CO)cc4Cl)c3Cl)c2C)C1 6

Provide PD-1/PD-L1 (Homo sapiens, UniProt Q9NZQ7) IC50 reading for Cc1c(COc2cc(OCc3cncc(C#N)c3)c(CN3CCCC[C@H]3C(=O)O)cc2Cl)cccc1-c1cccc(CN(C)CCN2CCS(=O)(=O)CC2)c1C . 73

Would you please give the reported IC50 of CCN(CC)C(=O)c1cccc(-c2cccc(COc3cc(OCc4cncc(C#N)c4)c(CN4CCCC[C@H]4C(=O)O)cc3Cl)c2C)c1C with PD-1/PD-L1 (Homo sapiens, UniProt Q9NZQ7)? 92

Specify IC50 for Cc1c(COc2cc(OCc3cncc(C#N)c3)c(CNC(CO)(CO)CO)cc2Cl)cccc1-c1cccc(OCCCNC(CO)(CO)CO)c1C , system PD-1/PD-L1 (Homo sapiens, UniProt Q9NZQ7). 3

State the measured IC50 (PD-1/PD-L1 (Homo sapiens, UniProt Q9NZQ7)) of Cc1ccc(COc2cc(OCc3cccc(-c4cccc(OCCCN5CC[C@@H](O)C5)c4C)c3C)c(Cl)cc2CNC(C)(CO)CO)cc1C 3

Fill: IC50 (PD-1/PD-L1 (Homo sapiens, UniProt Q9NZQ7)) for this molecule Cc1c(COc2cc(OCc3cncc(C#N)c3)c(CN3CCCC[C@H]3C(=O)O)cc2Cl)cccc1-c1cccc(OCCCNC[C@H](O)CO)c1C 0.9
